Cited source: PubChem BioAssay (NCI)

Recorded TGI, one value per entry.
system: U251 CNS; experiment: NCI tumour cell line growth inhibition, 48 h

Past entries and their recorded results:
molecule	TGI
CC1(C)C(C#N)C1C1=C(N2CCOCC2)[C@]2(C)C(OC(=O)c3ccccc3)CC[C@@H]2C1 (stereo partly specified)	> 100 µM
Nc1nn2cc(F)cnc2c1C(=O)Nc1cncc(F)c1N1CCC(C(=O)N2CCN(C3COC3)CC2)CC1	> 100 µM
Nc1ccc([N+](=O)[O-])cc1N=C/C=C/c1ccccc1	77.5 µM
CCOC(=O)CCC(NC(=O)Cc1ccc(Nc2nc3cc(F)c(F)cc3nc2C(=O)OCC)cc1)C(=O)OCC (stereo unspecified)	> 100 µM
O=c1[nH]nnc2c1sc1ncccc12	> 100 µM
O=C(/C=C/c1ccccc1)Oc1cccc(O)c1	> 100 µM
O=C(Nc1ccc(Br)cc1F)c1cc(F)ccc1O	> 100 µM
[N-]=[N+]=Nc1c([N+](=O)[O-])c(=O)n(-c2ccccc2)c2ccccc12	49.3 µM

**Query** Reported TGI, molecule O=C1c2ccccc2C(=O)N1CCn1ccc(NC(c2ccccc2)(c2ccccc2)c2ccccc2)nc1=O : ____
**Result** 32.3 µM

* * *

Recorded TGI, one value per entry.
tested on: 786-0 renal; test: NCI tumour cell line growth inhibition, 48 h

Past entries and their recorded results:
compound	TGI
CSc1nc(=O)n(CCC#N)nc1SC	44.6 µM
O=c1/c(=C/c2ccccc2[N+](=O)[O-])sc2nnc(-c3ccco3)n12	> 100 µM
Cc1cc(Nc2ccc(NC(=O)c3ccc(Nc4ccnc5ccccc45)cc3)cc2)nc(N)n1	> 100 µM

**Query** Reported TGI, compound COc1cccc(C(=O)Oc2ccc(OS(=O)(=O)c3ccc(C)cc3)cc2)c1C#N : ____
**Result** > 100 µM

**Query** Reported TGI, compound BrC1=C(Br)C2(SCCS2)[C@H]2C[C@@H]1c1ccccc12 : ____
**Result** > 100 µM

**Query** Reported TGI, compound Nc1ccc([N+](=O)[O-])cc1N=C/C=C/c1ccccc1 : ____
**Result** > 100 µM

**Query** Reported TGI, compound CN1CC(=O)N2Cc3ccccc3-n3cccc3C2C1 (stereo unspecified) : ____
**Result** > 100 µM

**Query** Reported TGI, compound COc1cc(C2C3C=CC=C4CC=CC(=C43)C3CCC(=O)N32)cc(OC)c1OC (stereo unspecified) : ____
**Result** > 100 µM

* * *

tested on: HT29 colon; assay: NCI tumour cell line growth inhibition, 48 h; in the data active = GI50 below about 0.43 µM; inactive = the rest
Hello, when you answer, please use one of the following outcomes: YES for active, NO for inactive

Consider the following illustrative entries.
molecule	class
CCCCOC(=O)CNC(=O)OC/C=C/C#CC#C/C=C/COC(=O)NCC(=O)OCCCC	NO
Cn1c(I)c(C#CCO[Si](C)(C)C(C)(C)C)c(=O)[nH]c1=O	NO
COc1ccc(OC)c2c1[nH]c(=O)c1c3ccccc3cn21	NO

**Query** Please let me know the test result on file for S=C(Nc1ccc(Cl)cc1)Nc1ccc(-c2nc3ccccc3s2)cc1 .
**Result** NO

**Query** Please let me know the test result on file for CNCc1ccccc1-c1csc([C@@H](C)Nc2nc(C)nc3cc(OC)c(OC)cc23)c1 .
**Result** NO

**Query** Please let me know the test result on file for Nc1nn2cc(F)cnc2c1C(=O)Nc1cncc(F)c1N1CCC(C(=O)N2CCN(C3COC3)CC2)CC1 .
**Result** NO

* * *

tested on: MALME-3M melanoma; assay: NCI tumour cell line growth inhibition, 48 h
Is TGI at least 30 µM? Then Satisfied. If not, Not satisfied.

**Query** Dear colleague, could you confirm whether O=C1C=CC(=O)c2c1ccc1c3ccccc3n(CCCCCn3c4ccccc4c4ccc5c(c43)C(=O)C=CC5=O)c21 has TGI at or above 30 µM?
**Result** Satisfied

**Query** Dear colleague, could you confirm whether O=S(=O)(O)CCCc1cccc2ccccc12 has TGI at or above 30 µM?
**Result** Satisfied

**Query** Dear colleague, could you confirm whether Fc1ccc2c(c1)nc1n2C(c2c(Cl)cccc2Cl)SC1 (configuration not stated) has TGI at or above 30 µM?
**Result** Not satisfied

* * *

Recorded TGI, one value per entry.
tested on: SK-MEL-2 melanoma; experiment: NCI tumour cell line growth inhibition, 48 h

Past entries and their recorded results:
molecule	TGI
Cc1cc(C)c2c(n1)sc1c(Nc3ccc(Cl)cc3)ncnc12	> 100 µM
Fc1ccc2c(c1)nc1n2C(c2c(Cl)cccc2Cl)SC1 (stereo unspecified)	29.7 µM
Cc1ccnc2[nH]c(-c3ccc4ccccc4c3)cc(=O)c12	28.2 µM
CCCNC(=O)NNC(=O)c1c[nH]c2nc(C)ccc2c1=O	> 100 µM

**Query** Reported TGI, molecule Cc1ccc(/C=N/Nc2cc(C)c3cccc(C)c3n2)s1 : ____
**Result** 33.2 µM

**Query** Reported TGI, molecule Cc1ccc(-c2c(C#N)c(-c3ccc(C)cc3)n(NS(=O)(=O)c3ccccc3)c(=O)c2C#N)cc1 : ____
**Result** > 100 µM

**Query** Reported TGI, molecule C=CCc1c(O)c2c(c3oc(=O)cc(C)c13)CC(C)O2 (stereo unspecified) : ____
**Result** > 100 µM

**Query** Reported TGI, molecule O=C(O)CCCc1nc2c(n1Cc1ccccc1)C(=O)c1ccccc1C2=O : ____
**Result** 52.9 µM

**Query** Reported TGI, molecule COc1ccc(/C=C2\CCNC2=O)cc1 : ____
**Result** > 100 µM

**Query** Reported TGI, molecule c1ccc2cc(-c3cc4ccccc4s3)ccc2c1 : ____
**Result** > 100 µM

**Query** Reported TGI, molecule C=C(Cl)C(=CCl)CCC(Br)C(C)(C)Cl (mixture of isomers) : ____
**Result** > 10 µM

* * *

system: HT29 colon; test: NCI tumour cell line growth inhibition, 48 h
reportedProperty: TGI

molecule	reportedProperty	obsValue
O=C(Nc1ccccc1)c1cc(S(=O)(=O)NC2=NC(c3ccccc3)c3cc(Cl)ccc3N2)c(SSc2cc(Cl)c(C(=O)Nc3ccccc3)cc2S(=O)(=O)NC2=NC(c3ccccc3)c3cc(Cl)ccc3N2)cc1Cl (centres undefined)	TGI	> 100 µM

Next, consider the following molecule.
**Query** So what TGI did O=C(Nc1ccc2ncccc2c1)Nc1ccc2ncccc2c1 get with HT29 colon?
**Result** > 100 µM

* * *

test system: T-47D breast; assay: NCI tumour cell line growth inhibition, 48 h
reportedProperty: TGI

compound	TGI
C=CCc1cccc2cc(C(=O)NCc3ccccc3)c(=N)oc12	> 100 µM
C/C=C/C(CC(O)(C(F)(F)F)C(F)(F)F)=N/NC(N)=S	> 10 µM

**Query** Reported TGI, compound NC(N)=NS(=O)(=O)c1ccc(NNc2c3ccccc3nc3c(C(=O)Nc4ccc(S(=O)(=O)Nc5ncccn5)cc4)cccc23)cc1 : ____
**Result** > 100 µM

**Query** Reported TGI, compound O=C1COc2cccnc2N1CCCCO : ____
**Result** > 100 µM

* * *

tested on: UO-31 renal; assay: NCI tumour cell line growth inhibition, 48 h; in the data active = GI50 below about 0.43 µM; inactive = the rest
Hello, when you answer, please use one of the following outcomes: active, inactive

compound	class
Oc1ccc(Nc2ncnc3c2sc2ncccc23)cc1	active
CC(=O)Nc1ccc(S(=O)(=O)N2C(=O)CCC2C(=O)Nc2ccc(Br)cc2)cc1 (centres undefined)	inactive
COc1cc(Nc2ncccc2C(=O)NCc2cn(Cc3cccc(Oc4ccccc4)c3)nn2)cc(OC)c1	inactive
CCN1CCN(C(=O)[C@@]2(C)CC[C@]3(C)CC[C@]4(C)C(=CC(=O)[C@@H]5[C@@]6(C)CC[C@H](OC7C[C@@H](O)[C@@H](O)C(C)O7)C(C)(C)[C@@H]6CC[C@]54C)[C@@H]3C2)CC1 (some centres undefined)	inactive
COc1cc(OCc2cccc(-c3ccc(C(O)c4nccs4)cc3)c2C)cc(OC)c1C=O (centres undefined)	inactive
COc1ccccc1/C=N\N/C(N)=N\N=C\c1ccccc1OC	inactive
CCCCC#CC1=C(Br)C(=O)OC1	inactive
N#Cc1c(N)nc(N2CCOCC2)c(C#N)c1-c1ccncc1	inactive

Please turn your attention to the following entry.
**Query** Please let me know the test result on file for Cn1cc(C2=C(c3ccc(N)cc3)C(=O)NC2=O)c2ccccc21 .
**Result** inactive

* * *

test system: HCT-15 colon; experiment: NCI tumour cell line growth inhibition, 48 h
Recorded TGI, one value per entry.

Past entries and their recorded results:
compound	target	obsValue
CCCC(=O)NC(NC1CCCCC1)(C(=O)OCC)C(F)(F)F (configuration not stated)	HCT-15 colon	> 100 µM
Cc1cc(Cl)cc(OCCn2cc(F)cn2)c1-c1nc(N)nc2c1CN(C(=O)NCC(C)(F)F)C2	HCT-15 colon	> 100 µM
[N-]=[N+]=Nc1c([N+](=O)[O-])c(=O)n(-c2ccccc2)c2ccccc12	HCT-15 colon	64.6 µM
CCC12CCCN(Cc3ccccc3)C1c1c(n(C)c3ccccc13)CC2 (configuration not stated)	HCT-15 colon	> 253 µM
N#Cc1c(NC(=O)NCc2ccccc2)sc2c1CCCCC2	HCT-15 colon	> 100 µM
C=CCCON(C(=O)OC(C)(C)C)C(C)(C)C	HCT-15 colon	> 100 µM
Cc1n(Cc2ccccc2)c2c([n+]1C)C(=O)c1ccccc1C2=O	HCT-15 colon	16.2 µM
CCCCOC(=O)CNC(=O)OC/C=C/C#CC#C/C=C/COC(=O)NCC(=O)OCCCC	HCT-15 colon	> 10 µM
CC1(C)CC(=O)C(C=NC(=S)c2ccccc2)=C(O)C1	HCT-15 colon	> 100 µM
CCN(CC)Cc1ccc(C(=S)Nc2ccc(Cl)cc2)s1	HCT-15 colon	23 µM

**Query** Reported TGI, compound NC(N)=NCCN1CC2CCC(CC2)C1 : ____
**Result** > 100 µM

**Query** Reported TGI, compound C[N+](C)(C)CC1CCCc2ccccc2C1=O (configuration not stated) : ____
**Result** 8.43 µM

**Query** Reported TGI, compound OC(CC1SCCCS1)c1ccccc1 (configuration not stated) : ____
**Result** > 100 µM

**Query** Reported TGI, compound c1ccc2cc(-c3cc4ccccc4s3)ccc2c1 : ____
**Result** > 100 µM

**Query** Reported TGI, compound O=c1oc2ccc3ccccc3c2cc1-c1nc2ccccc2s1 : ____
**Result** > 100 µM

**Query** Reported TGI, compound COc1cc2c(cc1OC)C(CC1=C(c3ccccc3)CN3CCc4cc(OC)c(OC)cc4C3C1)NCC2 (configuration not stated) : ____
**Result** 36.1 µM

**Query** Reported TGI, compound O=C1c2ccccc2C(=O)N1CCn1ccc(NC(c2ccccc2)(c2ccccc2)c2ccccc2)nc1=O : ____
**Result** 62.6 µM
